- condition-description: in γ-BL, room temperature, at the concentration (mmole/g) printed in the cell to the left
Exercise: state measured Cond. (conductivity) for each of the molecules provided.
Numbers only, in mS/cm.

State the recorded Cond. (conductivity) for every item in the following list.
1. CC1O[B-]2(OC1=O)OC(=O)C(C)O2.[Li+] (centres unmarked) [LLB, Lithium-bis(lactato)borate]
2. O=C1O[B-]2(OC1=O)OC(=O)C(=O)O2.[Li+] [LOB, Lithium-bis(oxalato)borate]
3. O=C1CC(=O)O[B-]2(O1)OC(=O)C(=O)O2.[Li+] [LOMB, Lithium-(malonato,oxalato)borate]
4. CC1O[B-]2(OC(=O)C(=O)O2)OC1=O.[Li+] (centres unmarked) [LLOB, Lithium-(lactato,oxalato)borate]
5. O=C1CC(=O)O[B-]2(O1)OC(=O)CC(=O)O2.[Li+] [LMB, Lithium-bis(malonato)borate]

[reply]
1: 0.01; 2: 6.96; 3: 3.59; 4: 2.61; 5: 1.65
